Listing of entries alongside the reported fold improvement of KD over 28A6 (parental).
molecular target: T1, bacterially produced human IL-6 (human, UniProt P05231 30-212); experiment: SPR (Biacore), periplasmic Fab
T1 construct: Immobilised on the Biacore chip; also called BACT IL-6 (2-1); bactIL-6
Kindly answer with a numeric value in fold, unit omitted.

Some solved cases for reference:
- 48H1 (Fab, V domains shown, Periplasmic Fab; Suffix 'g2, R4' not explained; also called 48H1g2, R4) VH: QVQLVESGGGLVQPGGSLRLSCAASGFTFSNYYMTWVRQAPGKGLEWVSSIYSFSGDTAYADSVKGRFTISRDNAKNTLYLQMNSLKSEDTAVYYCTRNLGGVVVTTNGYDYWGQGTQVTVSS VL: DVVMTQSPSSLPTSLGDSVTITCQASQSISDELSWYQQKPGQTPKLLIYGASKLQTGVPSRFSGSGSGTSFTLTISGLEAEDLATYYCLQGYSWPFMFGQGTKVELK: 2.2
- 55E10 (Fab, V domains shown, Periplasmic Fab; Suffix 'g1' not explained; also called 55E10g1) VH: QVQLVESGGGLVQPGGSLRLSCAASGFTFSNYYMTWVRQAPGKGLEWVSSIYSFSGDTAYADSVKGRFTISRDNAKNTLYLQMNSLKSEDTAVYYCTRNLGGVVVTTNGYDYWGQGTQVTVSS VL: DIQMTQSPSSLPTSLGDSVTITCQASQSISDELSWYQQKPGQTPKLLIYGASKLQTGVPSRFSGSGSGTSFTLTISGLEAEDLATYYCLQGYSWPFMFGQGTKVELK: 2.38
- 55A11 (Fab, V domains shown, Periplasmic Fab; Suffix 'd' of the label not explained; also called 55A11d) VH: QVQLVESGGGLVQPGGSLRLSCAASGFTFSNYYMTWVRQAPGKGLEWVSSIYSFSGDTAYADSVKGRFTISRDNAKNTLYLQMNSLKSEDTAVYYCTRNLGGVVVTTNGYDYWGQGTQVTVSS VL: DIQMTQSPSSLPTSLGDSVTITCQASQSISDELSWYQQKPGQTPKLLIYGASRLQTGVPSRFSGRGSGTSFTLTISGLEAEDLATYYCLQGYSWPFMFGQGTKVELK: 2.09

Shift focus to the following entry.
Request the reported fold improvement of KD over 28A6 (parental) associated with 55C11 (Fab, V domains shown, Periplasmic Fab; Suffix 'f' not explained; also called 55C11f) VH: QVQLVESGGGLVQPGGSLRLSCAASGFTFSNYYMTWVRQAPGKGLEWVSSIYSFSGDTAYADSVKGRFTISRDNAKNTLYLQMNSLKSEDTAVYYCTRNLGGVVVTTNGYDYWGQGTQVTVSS VL: DIQLTQSPSSLSASLGDSVTITCQASQSISDELSWYQQKPGQTPKLLIYGASKLQTGVPSRFSGSGSGTSFTLTISGLEAEDLATYYCLQGYRWPFMFGQGTKVELK 2.46
